Test system: Human alphaherpesvirus 2
assay_procedure: Antiviral activity against herpes simplex virus type 2 HSV-2 (F) expressed as viral rating (VR)
Format: functional
attribute_measured: VR
# print the numeric value only

## Task Given the molecule Nc1ncnc2c1ncn2C1C(O)C(O)C(CO)C1O (stereo unspecified) , what is its reported VR?
## Result 0.3

## Task Given the molecule "Nc1ncnc2c1ncn2[C@H]1[C@H](O)[C@H](O)[C@@H](CO)[C@H]1F" , what is its reported VR?
## Result 0.4

## Task Given the molecule C=C1C(CO)C(O)C(O)C1n1cnc2c(N)ncnc21 (stereo unspecified) , what is its reported VR?
## Result 0.3

## Task Given the molecule Nc1nc2c(ncn2COC(CO)CO)c(=O)[nH]1 [GANCICLOVIR] , what is its reported VR?
## Result 1.6

## Task Given the molecule "Nc1ncnc2c1ncn2[C@H]1[C@H](O)[C@H](O)[C@@H](CO)[C@@H]1F" , what is its reported VR?
## Result 0.1

More entries:
## Task Given the molecule Nc1ncnc2c1ncn2C1C(O)C(F)C(CO)C1O (stereo unspecified) , what is its reported VR?
## Result 0
